Every entry's value here was drawn from patent US20250250357A1.

Molecular target: T1, human MSLN-R3-his protein (human, UniProt Q13421 487-598)
T1 construct: it is put last here; also called human MSLN-R3 protein; hMSLN-R3-his; not shown: His tag
T1 sequence (Q13421 495-606): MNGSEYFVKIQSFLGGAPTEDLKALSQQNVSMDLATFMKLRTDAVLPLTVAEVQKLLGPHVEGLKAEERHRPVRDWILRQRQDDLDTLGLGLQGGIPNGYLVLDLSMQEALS
Test: ELISA on coated antigen, antibody 2 nM
Listed next: entries and their corresponding OD450.
Report the figure in OD without appending any unit label.

Would you please look over these solved cases?
binder	value.unit	OD450
S009-F7.33.24 (antibody, human IgG1, kappa, V domains shown, Human-murine chimeric antibody, human IgG1 heavy and kappa light constant regions) VH: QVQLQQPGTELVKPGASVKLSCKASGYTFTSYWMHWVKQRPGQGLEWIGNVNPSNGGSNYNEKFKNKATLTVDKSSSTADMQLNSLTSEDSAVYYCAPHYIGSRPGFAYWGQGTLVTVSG VL: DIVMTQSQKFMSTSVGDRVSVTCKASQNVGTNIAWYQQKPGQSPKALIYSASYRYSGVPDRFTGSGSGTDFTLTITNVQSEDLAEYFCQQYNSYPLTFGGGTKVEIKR	OD	2.85
S009-F7.48.1 (antibody, human IgG1, kappa, V domains shown, Human-murine chimeric antibody, human IgG1 heavy and kappa light constant regions) VH: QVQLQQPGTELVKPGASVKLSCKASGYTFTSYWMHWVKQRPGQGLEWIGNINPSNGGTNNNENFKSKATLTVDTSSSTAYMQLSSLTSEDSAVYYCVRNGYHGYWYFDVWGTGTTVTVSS VL: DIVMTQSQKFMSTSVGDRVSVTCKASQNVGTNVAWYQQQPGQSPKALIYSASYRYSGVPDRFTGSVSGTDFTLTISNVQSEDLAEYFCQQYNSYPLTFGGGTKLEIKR	OD	2.05
S009-F7.2.3 (antibody, human IgG1, kappa, V domains shown, Human-murine chimeric antibody, human IgG1 heavy and kappa light constant regions) VH: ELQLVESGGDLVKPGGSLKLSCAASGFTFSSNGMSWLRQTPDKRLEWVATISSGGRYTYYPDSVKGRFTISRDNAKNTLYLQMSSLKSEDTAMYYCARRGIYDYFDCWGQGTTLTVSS VL: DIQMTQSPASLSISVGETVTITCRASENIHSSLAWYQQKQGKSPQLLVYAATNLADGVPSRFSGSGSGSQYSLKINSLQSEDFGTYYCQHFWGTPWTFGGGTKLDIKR	OD	0.07
S009-F7.69.8 (antibody, human IgG1, kappa, V domains shown, Human-murine chimeric antibody, human IgG1 heavy and kappa light constant regions) VH: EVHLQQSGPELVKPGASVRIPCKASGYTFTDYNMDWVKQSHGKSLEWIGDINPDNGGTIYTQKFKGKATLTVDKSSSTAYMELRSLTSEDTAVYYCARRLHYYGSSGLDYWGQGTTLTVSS VL: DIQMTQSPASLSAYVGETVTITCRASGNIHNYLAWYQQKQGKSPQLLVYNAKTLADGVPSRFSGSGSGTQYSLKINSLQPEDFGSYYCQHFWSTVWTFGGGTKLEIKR	OD	2.54

Attention now turns to another entry.
Using known records, supply OD450 for S009-F7.61.21 (antibody, human IgG1, kappa, V domains shown, Human-murine chimeric antibody, human IgG1 heavy and kappa light constant regions) VH: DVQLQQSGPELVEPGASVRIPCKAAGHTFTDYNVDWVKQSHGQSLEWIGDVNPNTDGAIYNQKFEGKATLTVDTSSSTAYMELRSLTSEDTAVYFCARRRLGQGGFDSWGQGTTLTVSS VL: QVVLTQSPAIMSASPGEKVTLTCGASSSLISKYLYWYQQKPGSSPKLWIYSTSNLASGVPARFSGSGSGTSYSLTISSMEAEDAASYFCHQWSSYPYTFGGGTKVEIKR
2.17
